Value source: ChEMBL document CHEMBL2086296

Tested on: SF-268
experiment-summary: Cytotoxicity against human SF268 cells after 24 hrs by SRB assay
Format: cell-based
measurement-context: sf-268, 24 h
Would you kindly list LC50 for each of these molecules?

Examples from the recorded data:
O=C(/C=C/c1cc2ccccc2[nH]c1=O)c1ccc(O)cc1: > 100 µM
O=C(/C=C/c1cc2ccccc2[nH]c1=O)c1ccc(Cl)cc1: > 100 µM

List reported LC50 for each of these molecules:
1. COc1ccc(C(=O)/C=C/c2cc3ccccc3[nH]c2=O)cc1
2. O=C(/C=C/c1cc2ccccc2[nH]c1=O)/C=C/c1cc2ccccc2[nH]c1=O

1. 40.7 µM
2. > 100 µM

* * *

Would you kindly list TGI for each of these molecules?
Test system: SN12C
experiment-summary: Cytotoxicity against human SN12C cells after 24 hrs by SRB assay
Type: functional

List reported TGI for each of these molecules:
1. O=C(/C=C/c1cc2ccccc2[nH]c1=O)c1ccc(Cl)cc1
2. O=C(/C=C/c1cc2ccccc2[nH]c1=O)c1ccc(O)cc1
3. COc1ccc(C(=O)/C=C/c2cc3ccccc3[nH]c2=O)cc1
4. O=C(/C=C/c1cc2ccccc2[nH]c1=O)/C=C/c1cc2ccccc2[nH]c1=O

1. > 100 µM
2. 16 µM
3. > 100 µM
4. > 100 µM

* * *

Test system: OVCAR-3
experiment-summary: Cytotoxicity against human OVCAR3 cells after 24 hrs by SRB assay
Type: cell-based
measurement-context: ovcar-3, 24 h
measured-endpoint: LC50 (µM)
Answers are plain numbers, in µM.

COc1ccc(C(=O)/C=C/c2cc3ccccc3[nH]c2=O)cc1: 29.8

Consider the compound O=C(/C=C/c1cc2ccccc2[nH]c1=O)c1ccc(O)cc1 and give its measured LC50. 35

* * *

System: DU-145
experiment-summary: Cytotoxicity against human DU145 cells after 24 hrs by SRB assay
Assay type: cell-based
measurement-context: du-145, 24 h
Would you kindly list LC50 for each of these compounds?
One number for each entry, in µM.

O=C(/C=C/c1cc2ccccc2[nH]c1=O)c1ccc(O)cc1: 38

Consider the compound COc1ccc(C(=O)/C=C/c2cc3ccccc3[nH]c2=O)cc1 and give its measured LC50. 35.8

* * *

Test system: SF-295
experiment-summary: Cytotoxicity against human SF295 cells after 24 hrs by SRB assay
Type: cell-based
measurement-context: sf-295, 24 h
measured-endpoint: LC50

Examples from the recorded data:
O=C(/C=C/c1cc2ccccc2[nH]c1=O)c1ccc(O)cc1: > 100 µM
O=C(/C=C/c1cc2ccccc2[nH]c1=O)c1ccc(Cl)cc1: > 100 µM
O=C(/C=C/c1cc2ccccc2[nH]c1=O)/C=C/c1cc2ccccc2[nH]c1=O: > 100 µM

// next entry
Consider the compound COc1ccc(C(=O)/C=C/c2cc3ccccc3[nH]c2=O)cc1 and give its measured LC50. 80.8 µM

* * *

System: HCC 2998
experiment-summary: Cytotoxicity against human HCC2998 cells after 24 hrs by SRB assay
Type: cell-based
measurement-context: hcc 2998, 24 h
Would you kindly list LC50 for each of these molecules?
Answers are plain numbers, in µM.

Examples from the recorded data:
O=C(/C=C/c1cc2ccccc2[nH]c1=O)c1ccc(Cl)cc1: 59.6
O=C(/C=C/c1cc2ccccc2[nH]c1=O)/C=C/c1cc2ccccc2[nH]c1=O: 5.25
O=C(/C=C/c1cc2ccccc2[nH]c1=O)c1ccc(O)cc1: 59.6

// next entry
Consider the molecule COc1ccc(C(=O)/C=C/c2cc3ccccc3[nH]c2=O)cc1 and give its measured LC50. 29
